Reference source for all entries: ChEMBL document CHEMBL1123791

Some compounds, each annotated with its measured Toxicity.
System: MT4
Test: Toxicity was determined by evaluation of cluster morphology and reclustering properties in mock infected MT-4 cells at 125 uM concentration
Type: cell-based
Settings: human, mt4, 125 µM

Completed entries (count: 2):
>>> df
                                   compound  reportedendpoint  observed
0  Cc1cn([C@H]2C[C@H](OCC(=O)[O-])[C@@H](CO)O2)c(=O)[nH]c1=O.[Na+]          Toxicity     < 10%
1  Cc1cn([C@H]2C[C@H](SC#N)[C@@H](CO)O2)c(=O)[nH]c1=O          Toxicity     > 90%

Quick check: Toxicity on MT4, item Cc1cn([C@H]2C[C@H](O)[C@@H](CO)O2)c(=O)[nH]c1=O ?
< 10%

Quick check: Toxicity on MT4, item CCSC1CC(n2cc(C)c(=O)[nH]c2=O)OC1CO (stereo not given) ?
> 90%

Quick check: Toxicity on MT4, item Cc1cn(C2CC(Cl)C(CO)O2)c(=O)[nH]c1=O (stereo not given) ?
> 90%

Quick check: Toxicity on MT4, item O=c1ccn(C2CCC(CO)O2)c(=O)[nH]1 (stereo not given) ?
< 10%

Quick check: Toxicity on MT4, item Nc1ccn([C@H]2C[C@H](O)[C@@H](CO)O2)c(=O)n1 ?
> 90%

Quick check: Toxicity on MT4, item Cc1cn([C@H]2C[C@H](OS(C)(=O)=O)[C@@H](CO)O2)c(=O)[nH]c1=O ?
< 10%

Quick check: Toxicity on MT4, item Nc1ccn(C2CC3OCC3O2)c(=O)n1 (stereo not given) ?
< 10%

Quick check: Toxicity on MT4, item Cc1cn([C@H]2C[C@H](F)[C@@H](CO)O2)c(=O)[nH]c1=O ?
> 90%
